Cited source: patent US8063060B2

Molecular target: human D2 receptor (Homo sapiens, UniProt P14416)
Construct: expressed in transfected cells
Sequence (P14416 whole entry): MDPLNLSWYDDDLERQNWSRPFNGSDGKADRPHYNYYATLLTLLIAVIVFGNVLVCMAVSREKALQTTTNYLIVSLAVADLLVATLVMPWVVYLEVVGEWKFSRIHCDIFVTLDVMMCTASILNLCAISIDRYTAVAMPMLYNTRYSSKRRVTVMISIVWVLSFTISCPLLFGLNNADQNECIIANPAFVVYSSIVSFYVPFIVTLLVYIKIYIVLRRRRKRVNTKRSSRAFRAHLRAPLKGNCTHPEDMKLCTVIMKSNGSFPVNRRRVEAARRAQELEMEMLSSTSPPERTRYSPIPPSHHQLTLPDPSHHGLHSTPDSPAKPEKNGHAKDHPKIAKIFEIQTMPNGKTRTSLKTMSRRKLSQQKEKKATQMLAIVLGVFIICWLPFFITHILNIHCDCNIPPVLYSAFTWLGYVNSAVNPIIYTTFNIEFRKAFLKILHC
Assay: Affinity at human D2 receptor in transfected cell membranes, tritium-labeled nemonapride
Type: binding
Description: Affinity data were obtained in cells transfected with human D1, D2, or D3 receptor cDNA. Cells were grown and harvested using standard procedures.
quantity name: Ki (nM)
Write down the numeric answer in nM and omit the unit.

# input compound: C=CCN1CCc2cccc3c2[C@H]1Cc1cccc(O)c1-3 [Compound 5, R(−)-N-allyl-11-hydroxynoraporphine] ; wanted: its Ki 113

* * *

// values below are reported Ki
Target: dopamine D1 receptor (Rattus norvegicus, UniProt P18901)
Construct: membrane preparations from dopamine-rich corpus striatum (caudatoputamen) tissue from rat forebrain; from tissue; host or cells: corpus striatum (caudatoputamen) of adult male Sprague-Dawley rats
Sequence (P18901 whole entry): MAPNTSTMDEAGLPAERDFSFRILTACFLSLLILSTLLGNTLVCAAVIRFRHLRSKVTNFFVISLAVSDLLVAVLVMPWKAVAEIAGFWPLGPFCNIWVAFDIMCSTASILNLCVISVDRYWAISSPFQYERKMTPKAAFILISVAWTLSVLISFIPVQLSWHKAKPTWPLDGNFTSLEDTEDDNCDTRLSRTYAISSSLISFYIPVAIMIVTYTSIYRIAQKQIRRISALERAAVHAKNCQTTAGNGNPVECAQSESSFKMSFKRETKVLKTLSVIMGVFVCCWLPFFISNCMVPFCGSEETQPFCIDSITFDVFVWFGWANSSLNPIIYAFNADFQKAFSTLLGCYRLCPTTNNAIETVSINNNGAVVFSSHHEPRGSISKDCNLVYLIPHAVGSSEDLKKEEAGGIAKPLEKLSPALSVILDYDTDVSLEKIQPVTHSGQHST
Test: Radioligand competition assay, D1 receptor, rat corpus striatum membranes, [3H]SCH-23390
Type: binding

[
  {
    "molecule": "CCCN1CCc2cc(F)cc3c2[C@H]1Cc1cccc(O)c1-3",
    "Ki": "12.6 nM"
  }
]

Now, please, on to the next molecule.
Quick one: Ki of C=CCN1CCc2cccc3c2[C@H]1Cc1cccc(O)c1-3 [Compound 5, R(−)-N-allyl-11-hydroxynoraporphine] ? 397 nM

* * *

Target: human D1 receptor (Homo sapiens, UniProt P21728)
Construct: expressed in transfected cells
Sequence (P21728 whole entry): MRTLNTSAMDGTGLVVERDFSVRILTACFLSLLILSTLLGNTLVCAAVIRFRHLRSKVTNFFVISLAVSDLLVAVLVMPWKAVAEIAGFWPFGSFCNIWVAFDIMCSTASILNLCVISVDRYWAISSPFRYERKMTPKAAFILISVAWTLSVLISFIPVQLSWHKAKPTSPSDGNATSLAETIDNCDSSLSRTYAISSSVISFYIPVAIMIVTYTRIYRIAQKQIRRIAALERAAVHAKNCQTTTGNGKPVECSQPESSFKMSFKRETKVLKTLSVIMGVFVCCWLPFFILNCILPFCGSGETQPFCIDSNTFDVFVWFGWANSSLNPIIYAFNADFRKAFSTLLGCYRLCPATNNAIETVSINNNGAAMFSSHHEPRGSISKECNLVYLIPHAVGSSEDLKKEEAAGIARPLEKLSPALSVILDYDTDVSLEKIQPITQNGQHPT
Test: Affinity at human D1 receptor in transfected cell membranes, tritium-labeled SCH-23390
Format: binding
Description: Affinity data were obtained in cells transfected with human D1, D2, or D3 receptor cDNA. Cells were grown and harvested using standard procedures.
Ki values, listed per item
Please make sure the unit comes right after the number.

[
  {
    "compound": "C=CCN1CCc2cccc3c2[C@H]1Cc1cccc(O)c1-3 [Compound 5, R(−)-N-allyl-11-hydroxynoraporphine]",
    "Ki": "944 nM"
  }
]

// switching to the query compound
Item under review: CCCN1CCc2cccc3c2[C@H]1Cc1cccc(O)c1-3 [Compound 4, R(−)—N-propyl-11-hydroxynoraporphine] . Reported Ki? 1280 nM

* * *

Biological target: dopamine D1 receptor (Rattus norvegicus)
Construct: membrane preparations from dopamine-rich corpus striatum (caudatoputamen) tissue from rat forebrain; from tissue; host or cells: corpus striatum (caudatoputamen) of adult male Sprague-Dawley rats
Experiment: Radioligand competition assay, D1 receptor, rat corpus striatum membranes, [3H]SCH-23390
Assay type: binding
Conditions: rat striatal membranes, 0.3 nM [3H]SCH-23390, 30 minutes at 30° C; read-out: Affinity at rat dopamine receptors, D1
quantity name: pKi
Quick note: pKi values are minus log10 of concentrations in mol/L.

Recorded pKi, per entry:
[
  {
    "molecule": "Oc1cccc2c1-c1cccc3c1[C@@H](C2)N(CC1CC1)CC3",
    "system under test": "dopamine D1 receptor (Rattus norvegicus)",
    "pKi": 6.57
  },
  {
    "molecule": "CN1CCc2cc(O)cc3c2[C@H]1Cc1cccc(O)c1-3 [Compound 24, R(−)-2,11-dihydroxyaporphine]",
    "system under test": "dopamine D1 receptor (Rattus norvegicus)",
    "pKi": 6.91
  },
  {
    "molecule": "CCN1CCc2cccc3c2[C@H]1Cc1cccc(O)c1-3 [Compound 14, R(−)—N-ethyl-11-hydroxynoraporphine]",
    "system under test": "dopamine D1 receptor (Rattus norvegicus)",
    "pKi": 6.75
  }
]

Which pKi value belongs to CN1CCc2cccc3c2[C@H]1Cc1cccc(O)c1-3 [Compound 3, R(−)-11-OH-aporphine, reference compound] ? 7.58

Need pKi, item CCCN1CCc2cc(F)cc3c2[C@H]1Cc1ccc(O)c(O)c1-3 [Compound 22, R(−)-2-fluoro-N-n-propylnorapomorphine, reference compound] 6.21

* * *

Biological target: human D3 receptor (Homo sapiens)
Construct: expressed in transfected cells
Sequence (P35462 whole entry): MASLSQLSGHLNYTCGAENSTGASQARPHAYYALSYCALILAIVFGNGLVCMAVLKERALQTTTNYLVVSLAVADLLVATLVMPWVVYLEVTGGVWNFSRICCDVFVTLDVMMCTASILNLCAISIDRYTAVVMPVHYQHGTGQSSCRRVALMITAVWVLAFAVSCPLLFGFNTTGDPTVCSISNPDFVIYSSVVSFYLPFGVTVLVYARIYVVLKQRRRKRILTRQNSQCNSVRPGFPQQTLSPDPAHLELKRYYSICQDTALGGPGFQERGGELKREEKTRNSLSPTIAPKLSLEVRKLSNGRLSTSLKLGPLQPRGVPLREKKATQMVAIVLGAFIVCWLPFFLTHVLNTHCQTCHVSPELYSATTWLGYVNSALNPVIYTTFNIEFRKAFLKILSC
Assay: Affinity at human D3 receptor in transfected cell membranes, tritium-labeled 7-OH-DPAT
Format: binding
Catalogue of pKi values
# pKi = -log10(concentration in molar units)

Record excerpt, results attached:
[
  {
    "compound": "CCCN1CCc2cccc3c2[C@H]1Cc1cccc(O)c1-3 [Compound 4, R(−)—N-propyl-11-hydroxynoraporphine]",
    "pKi": 8.31
  },
  {
    "compound": "Oc1cccc2c1-c1cccc3c1[C@@H](C2)N(CC1CC1)CC3 [Compound 15]",
    "pKi": 7.52
  }
]

Read the next record carefully.
Look up pKi for this compound: CCN1CCc2cccc3c2[C@H]1Cc1cccc(O)c1-3 [Compound 14, R(−)—N-ethyl-11-hydroxynoraporphine] 7.44

* * *

Target: dopamine D2 receptor (Rattus norvegicus, UniProt P61169)
Sequence (P61169 1-415 isoform P61169-2): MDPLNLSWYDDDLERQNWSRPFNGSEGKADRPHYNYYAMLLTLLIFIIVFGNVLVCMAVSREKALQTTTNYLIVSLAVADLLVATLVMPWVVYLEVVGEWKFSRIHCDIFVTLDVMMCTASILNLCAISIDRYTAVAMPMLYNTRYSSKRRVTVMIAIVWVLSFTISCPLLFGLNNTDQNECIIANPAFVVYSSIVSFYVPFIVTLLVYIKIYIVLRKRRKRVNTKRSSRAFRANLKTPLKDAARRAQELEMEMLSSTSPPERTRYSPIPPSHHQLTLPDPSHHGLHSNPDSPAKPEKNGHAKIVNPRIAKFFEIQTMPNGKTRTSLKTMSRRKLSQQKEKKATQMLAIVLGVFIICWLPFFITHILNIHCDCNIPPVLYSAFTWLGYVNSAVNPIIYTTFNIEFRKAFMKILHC
Test: Radioligand competition assay, D2 receptor, rat corpus striatum membranes, [3H]nemonapride
Type: binding
Settings: rat striatal membranes, [3H]nemonapride, 90 minutes at 30° C; read-out: Affinity at rat dopamine receptors, D2
quantity name: pKi
Remember the convention: pKi equals -log10 of concentration in molar.

// below: answered compounds
[
  {
    "compound": "CCCN1CCc2cccc3c2[C@H]1Cc1cccc(OC(C)=O)c1-3 [Compound 19, R(−)-11-O-acetyl-N-propyl-noraporphine]",
    "pKi": 7.14
  },
  {
    "compound": "CCCN1CCc2cc(F)cc3c2[C@H]1Cc1cccc(O)c1-3",
    "pKi": 6.69
  },
  {
    "compound": "CCCN1CCc2cc(F)cc3c2[C@H]1Cc1ccc(O)c(O)c1-3 [Compound 22, R(−)-2-fluoro-N-n-propylnorapomorphine, reference compound]",
    "pKi": 7.76
  }
]

Next up:
// map CN1CCc2cccc3c2[C@H]1Cc1cccc(O)c1-3 [Compound 3, R(−)-11-OH-aporphine, reference compound] to recorded pKi (system: dopamine D2 receptor (Rattus norvegicus, UniProt P61169)) 6.97

* * *

System: adult male Sprague-Dawley rats
Experiment: Stimulation of motor activity (photobeam activity monitoring), in vivo potency and oral bioavailability
Set-up: species or system rat
Conditions: 20 μmol/kg, gastric
quantity name: Induced motor activation, Duration
Record the result as a number with its unit.

Guide cases for Induced motor activation, Duration, answers given:
[
  {
    "compound": "CCCN1CCc2cccc3c2[C@H]1Cc1cccc(OC(C)=O)c1-3 [Compound 19, R(−)-11-O-acetyl-N-propyl-noraporphine]",
    "system under test": "adult male Sprague-Dawley rats",
    "Induced motor activation, Duration": "16 h"
  },
  {
    "compound": "CCCCC(=O)Oc1cccc2c1-c1cccc3c1[C@@H](C2)N(CCC)CC3 [Compound 18, R(−)-11-O-valeryl-N-propyl-noraporphine]",
    "system under test": "adult male Sprague-Dawley rats",
    "Induced motor activation, Duration": "14 h"
  },
  {
    "compound": "CC/C=C\\C/C=C\\C/C=C\\C/C=C\\C/C=C\\C/C=C\\CCC(=O)Oc1cccc2c1-c1cccc3c1[C@@H](C2)N(CCC)CC3 [Compound 17]",
    "system under test": "adult male Sprague-Dawley rats",
    "Induced motor activation, Duration": "12 h"
  }
]

So what does the record say about Induced motor activation, Duration for CCCN1CCc2cccc3c2[C@H]1Cc1cccc(O)c1-3 [Compound 4, R(−)—N-propyl-11-hydroxynoraporphine] ? 18 h

Field request: Induced motor activation, Duration | item: CCCN1CCc2cccc3c2[C@H]1Cc1ccc(O)c(O)c1-3 [Compound 2, R(−)-N-propylnorapomorphine, reference compound] 14 h

* * *

Target: human D1 receptor (Homo sapiens, UniProt P21728)
Construct: expressed in transfected cells
Experiment: Affinity at human D1 receptor in transfected cell membranes, tritium-labeled SCH-23390
Assay type: binding
Conditions: transfected cell membranes; read-out: Affinity at human receptors, D1
Experimental: Affinity data were obtained in cells transfected with human D1, D2, or D3 receptor cDNA. Cells were grown and harvested using standard procedures.
quantity name: pKi
pKi here is simply -log10 of the concentration when that concentration is written in mol/L.

[
  {
    "compound": "CCCN1CCc2cc(F)cc3c2[C@H]1Cc1ccc(O)c(O)c1-3 [Compound 22, R(−)-2-fluoro-N-n-propylnorapomorphine, reference compound]",
    "assay value": 6.38
  }
]

Shift focus to the following entry.
Please give the measured pKi for this compound: CCN1CCc2cccc3c2[C@H]1Cc1cccc(O)c1-3 [Compound 14, R(−)—N-ethyl-11-hydroxynoraporphine] 6.44

* * *

Listing of entries alongside the reported Ki.
Target: human D2 receptor (Homo sapiens)
Construct: expressed in transfected cells
Experiment: Affinity at human D2 receptor in transfected cell membranes, tritium-labeled nemonapride
Format: binding
Settings: transfected cell membranes; read-out: Affinity at human receptors, D2
Quick note: give the figure in nM, leave out the unit.

Answered examples (2):
[
  {
    "compound": "CCCN1CCc2cc(F)cc3c2[C@H]1Cc1ccc(O)c(O)c1-3 [Compound 22, R(−)-2-fluoro-N-n-propylnorapomorphine, reference compound]",
    "units symbol": "nM",
    "assay value": 46
  },
  {
    "compound": "CCN1CCc2cccc3c2[C@H]1Cc1cccc(O)c1-3 [Compound 14, R(−)—N-ethyl-11-hydroxynoraporphine]",
    "units symbol": "nM",
    "assay value": 283
  }
]

# ---- query compound ----
// returns reported Ki for input `Oc1cccc2c1-c1cccc3c1[C@@H](C2)N(CC1CC1)CC3` 436
